Measured MIC by item
system: Bacillus thuringiensis; assay: Antibacterial activity against Bacillus thuringiensis after 24-48 hrs by microdilution susceptibility test; format: functional
Give a bare numeral; the unit µg/mL is implied.

NC1=Nc2ccccc2NC=C1C(=O)Nc1nc2ccccc2s1: 12.5
CN[C@@H]1[C@H](O[C@H]2[C@H](O[C@H]3[C@H](O)[C@@H](O)[C@H](N=C(N)N)[C@@H](O)[C@@H]3N=C(N)N)O[C@@H](C)[C@]2(O)C=O)O[C@@H](CO)[C@H](O)[C@H]1O: 6.25
N#C/C(=C\NNc1ccccc1)C(=O)Nc1nc2ccccc2s1: 50
N#Cc1cncn(-c2nc3ccccc3s2)c1=O: 50
N=c1c(C(=O)Nc2nc3ccccc3s2)cnc2ccccn12: 12.5

Summary for this compound, `O=C(N[C@H](CO)[C@H](O)c1ccc([N+](=O)[O-])cc1)C(Cl)Cl` : MIC is 6.25

Summary for this compound, `N#C/C(=C\NN)C(=O)Nc1nc2ccccc2s1` : MIC is 50

Summary for this compound, `Nc1[nH]ncc1C(=O)Nc1nc2ccccc2s1` : MIC is 50

Summary for this compound, `Nc1oncc1C(=O)Nc1nc2ccccc2s1` : MIC is 25

Summary for this compound, `Nc1c(C(=O)Nc2nc3ccccc3s2)cnn1-c1ccccc1` : MIC is 50

Summary for this compound, `N#C/C(=C/N)C(=O)Nc1nc2ccccc2s1` : MIC is 50

Summary for this compound, `Nc1ncc(C(=O)Nc2nc3ccccc3s2)c(N)n1` : MIC is 25
